// Pim-2 (Homo sapiens (Human)) IC50 records
attribute_measured: IC50

chem_smiles=N[C@@H]1CN(c2ccncc2NC(=O)c2ccc3ncc(-c4ccc(N5CCOCC5)nc4)cc3n2)C[C@H](C2CC2)[C@H]1O result="≤ 100 nM"
chem_smiles=C[C@@H]1C[C@H](N)CN(c2ccncc2NC(=O)c2ccc3ccc(N4CCN(C)CC4)cc3n2)C1 result="100 to 1000 nM"
chem_smiles=C[C@@H]1C[C@H](N)CN(c2ccncc2NC(=O)c2ccc3ccc(-c4ccccc4C#N)cc3n2)C1 result="≤ 100 nM"
chem_smiles=C[C@H]1CN(c2ccncc2NC(=O)c2ccc3ccc(C4CCOCC4)cc3n2)C[C@@H](N)[C@@H]1O result="100 to 1000 nM"
